Molecular target: T1, human gasdermin D (GSDMD), full length (human, UniProt P57764 1-484, chemically biotinylated (sites not given) in the SPR experiments)
T1 construct: Used in SPR (biotinylated), nanoDSF and the liposome assay; the same entry is used for endogenous GSDMD of THP-1 cells; also called wild type, human GSDMD; GSDMD 1-484
T1 sequence: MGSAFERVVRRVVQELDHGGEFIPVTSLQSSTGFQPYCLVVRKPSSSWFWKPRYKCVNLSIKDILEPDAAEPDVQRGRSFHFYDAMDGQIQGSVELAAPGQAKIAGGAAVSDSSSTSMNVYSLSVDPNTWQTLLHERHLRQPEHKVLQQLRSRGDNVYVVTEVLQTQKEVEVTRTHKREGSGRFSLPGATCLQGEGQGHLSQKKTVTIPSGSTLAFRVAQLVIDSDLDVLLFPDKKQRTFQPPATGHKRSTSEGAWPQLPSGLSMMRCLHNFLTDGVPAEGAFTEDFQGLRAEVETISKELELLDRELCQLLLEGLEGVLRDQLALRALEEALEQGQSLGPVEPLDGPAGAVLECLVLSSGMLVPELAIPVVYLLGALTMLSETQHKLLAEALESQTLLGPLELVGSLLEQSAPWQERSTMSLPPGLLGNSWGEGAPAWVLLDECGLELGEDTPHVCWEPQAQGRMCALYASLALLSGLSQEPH
Assay: nanoDSF thermal shift, equimolar GSDMD and nanobody
# increase of the thermal stability of GSDMD values compiled below

Illustrative cases are given below, each with its answer.
VHHGSDMD-6 (VHH, Alpaca single-domain antibody; The crystal model holds VHH-6 residues 1-123; also called VHH AK-G08; VHH-6; not shown: C-terminal HA-His tag (recombinant protein: SPR, nanoDSF, liposome assay, crystal, ELISA)) VHH: QVQLVETGGGLVQPGGSLRLSCTASGFIFSANQMNWVRQAPGKGLEWLSGISTRGDTTSYADSVKGRFTISRDNAKNTLYLQMNSLQPDDTAVYFCARVCIRGPEPKLRCDDWGQGTQVTVSS = 4.2 °C
VHHGSDMD-1 (VHH, Alpaca single-domain antibody; One entry is used for all tag variants; also called VHH AK-A04; VHH-1; not shown: C-terminal tag that differs by assay: LPETG-His (recombinant protein: SPR, nanoDSF, liposome assay), HA-His6 (ELISA), HA) VHH: QVQLVESGGALVQPGGSLRLSCSASGFTFSKYLMSWYRQAPGKERELVATITTAGGNTNYADSVKGRFTISRDNAKNTVYLQMNSLKPEDTAVYYCKASGGTIRTVNETYWGQGTQVTVSS = ≤ 9.4 °C
VHHGSDMD-2 (VHH, Alpaca single-domain antibody; The crystal model holds VHH-2 residues 1-118; One entry is used for all tag variants; also called VHH AK-C03; VHH-2; not shown: C-terminal tag that differs by assay: LPETG-His (recombinant protein: SPR, nanoDSF, liposome assay, crystal), HA-His6 (E)) VHH: QVQLVESGGGLVQPGGSLRLSCVDSRSWINVYGANWYRQAPGKERELVAALTSGGTTNYADSVKGRFTISRDNAKNTVYLQMRDLKPEDTAVYYCNLERYTGSSVYPWGQGTQVTVSS = ≤ 9.4 °C

response.value for VHHGSDMD-3 (VHH, Alpaca single-domain antibody; One entry is used for all tag variants; also called VHH AK-H12; VHH-3; not shown: C-terminal tag that differs by assay: LPETG-His (recombinant protein: SPR, nanoDSF, liposome assay), HA-His6 (ELISA), HA) VHH: QVQLVETGGGLVQPGGSLRLSCAASGFTLDIYNMGWFRQAPGKEREGVSCISSRYGTSTYYADSVKGRFTISRDNAKNTVYLQMNNLKPEDTAVYYCATVSWRFTTNQDVCLTPSVSGYWGQGTQVTVSS (field: increase of the thermal stability of GSDMD) = ≤ 9.4 °C

Data origin, for the record: patent US20260209323A1
